Kindly supply the reported cytotoxicity at 10 µM values for the records listed here.
# EXPERIMENTAL DETAILS: Toxicity liver stage against HepG2, at 10uM
# Format: cell-based
# Design: test concentration 10 uM, cell line HepG2-A16-CD81EGFP
# TEST PARAMETERS: human, HepG2-A16-CD81EGFP cells; read-out: INHIBITION
Numeric only. Scale: %

Look up cytotoxicity at 10 µM for this compound: CC(Oc1cccc(Cl)c1)C(=O)Nc1cnn(CC(=O)NC2CC2)c1 (centres undefined)
1.73

Need cytotoxicity at 10 µM of `O=C(CN1C(=O)CCC1=O)N1Cc2cncnc2C1` , thanks.
-8.33

Would you kindly share the measured cytotoxicity at 10 µM for Cc1cnn(C(C)C2CC2)c1NC(=O)c1ccco1 (centres undefined) ?
-1.19

Endpoint output: cytotoxicity at 10 µM of `Cc1noc(C)c1CNc1ccc2nc(C3CC3)sc2c1` . Value?
10.8

Given `CCCC(=O)N(CCCN1CCOCC1)c1nc2c(C)c(C)ccc2s1` , state its recorded cytotoxicity at 10 µM.
-12.6

What value of cytotoxicity at 10 µM has been recorded for this entry: CCC(CN1CCCC1)n1cncc1-c1cnn(-c2ccc(F)cc2)c1 (centres undefined)
5.29

Reported cytotoxicity at 10 µM for COCC1CC2(CCN(Cc3ccccn3)CC2)CN1C(C)C (centres undefined) : what is it?
-7.16

Quick one: cytotoxicity at 10 µM of `Cc1cccc2c1nc(CCO)n2-c1ccc(N)nc1` ?
-1.32

Consider the compound shown here: `O=C(c1cscn1)N1CC[C@]2(C[C@@H](OCCN3CCCC3)CO2)C1` What is its recorded cytotoxicity at 10 µM?
0.462

Record request: cytotoxicity at 10 µM value, item Cc1occc1C(=O)N1CCCC(C2=Nc3ccccc3S(=O)(=O)N2)C1 (centres undefined)
4.03

Endpoint output: cytotoxicity at 10 µM of Cc1nccc(-c2cccc(-c3ccn(CC4CCNC4)n3)c2)n1 (centres undefined) . Value?
10.7

Requested read-out: cytotoxicity at 10 µM. Entry: `CN(C)[C@H]1CCCCN(C(=O)c2cccc(-c3cccc(F)c3)c2)C1`
-6.3

Reported cytotoxicity at 10 µM for `CCn1cc(-n2cc3nc(N4CCC(C)CC4)[nH]cc-3c2=O)cn1` : what is it?
6.97

Can you look up the measured cytotoxicity at 10 µM of CCc1ccc(C(=O)Nc2ccc(CC3CC(=O)NC3=O)cc2)cc1 (centres undefined) for me?
-13.5

Form field: reported cytotoxicity at 10 µM of c1csc(CN2CCC3(COCCN(CC4CC4)C3)C2)n1 (centres undefined)
1.44

Quick check: cytotoxicity at 10 µM of CSCCC(Nc1nc(C)cc(C)n1)C(=O)NC1CCCC1 (centres undefined) ?
-4.87

For `c1cc(CCNc2ncc(-c3cnccn3)c(C3CC3)n2)ccn1` , what is its reported cytotoxicity at 10 µM?
13.5

Recorded cytotoxicity at 10 µM for Cc1cccc(C(C(=O)N2CCN(C(=O)c3ccc[nH]3)CC2)N(C)C)c1 (centres undefined) , please?
-7.55

# query: cytotoxicity at 10 µM of entry COc1cc(C(C)NCc2cscn2)ccc1SC(F)F (centres undefined)
0.762

Dear colleague, I am looking for the recorded cytotoxicity at 10 µM of the following compound: CCOC(=O)CNC(=O)N1CCCC(CNC(=O)c2ccco2)C1 (centres undefined)
-10.9

What value of measured cytotoxicity at 10 µM is listed for `Cc1ccc2snc(C(=O)N3CCN(C(=O)NCCC(C)C)CC3)c2c1` ?
-0.964

Sample Cc1cnn(C2CCCN(C(=O)c3cc(-c4ccco4)[nH]n3)C2)c1 (centres undefined) — what was its cytotoxicity at 10 µM?
-9.48

I'd like to know its cytotoxicity at 10 µM. The compound in question is COc1cccc(-n2nnc(C(=O)N3CCN(C)CC3C)c2C)c1 (centres undefined)
-4.05

Quick one: cytotoxicity at 10 µM for Cc1cnc(C(=O)N2CCC(COCc3ccccc3)C2)cn1 (centres undefined) ?
7.54

Origin of the recorded values: ChEMBL document CHEMBL4513216
